tested on: ATP; assay: switch fluorescence ratio, 500 uM ATP over buffer (Cy3 cluster intensity, sum of 5 cycles each) (fold (ratio)); higher = stronger signal-on switching upon ATP binding; sequences stand for … in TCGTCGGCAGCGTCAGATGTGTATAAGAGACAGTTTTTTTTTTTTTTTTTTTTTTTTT…TC; settings: aptamer strand: ATP DNA aptamer (quencher-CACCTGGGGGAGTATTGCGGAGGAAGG + anchor), 100 nM annealed; ATP concentration: 500 uM;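 note: ATP exposure 15 min at 22 °C before imaging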
Could you label it 1 if measured switch fluorescence ratio is 1 or higher, and 0 otherwise?

Examples from the recorded data:
>>> group("GGCTCCGGGG")
1
>>> group("TCCTAAACGT")
1
>>> group("GAGAGCTTGT")
0
>>> group("TGTCCTCAGC")
1
>>> group("TTTACTAGGT")
0

Attention now turns to another entry.
Is switch fluorescence ratio for AACTGACGAA at or above 1?
1
